Test: yeast display, Sf9 membrane polyspecificity reagent, FACS + sequencing; frameworks hold sequencing errors
experimental_endpoint: polyreactivity (PSR sort gate)

Example entries and their recorded answers appear below.
[[record]]
monomer_sequence = "QVQLVESGGGLVQAGGSLRLSCAASGFTFRLYDMGCYIQAPGKERELVAAISIRGGRTYYADSVKGRFTISRDNAKNTVYLQMNSLKPEDTAVYYCAAYSQYLKRDYWGQGTQVTVSS"
experimental_endpoint = "polyreactivity (PSR sort gate)"
result = "high polyreactivity"

[[record]]
monomer_sequence = "QVQLVESGGGLVQAGGSLRLSCAASGSIFFNTMGWYRQAPGKERELVAAINTSGGRTYYADSVKGRFTISRDNAKNTVYLQMNSLKPEDTAVYYCATTAYSQYYTYYYWGQGTQVTVSS"
experimental_endpoint = "polyreactivity (PSR sort gate)"
result = "high polyreactivity"

[[record]]
monomer_sequence = "QVQLVESGGGIVQAGGSLSLSCAASGFNFGIYAMGWYRQAPGKEREFVAAITGSAGSTYYADSVKGRFTISLDNAKNTVYLQMNSLKPEDTAVYYCAAVLRTHRYGGYNYWGQGTQVTVSS"
experimental_endpoint = "polyreactivity (PSR sort gate)"
result = "low polyreactivity"

[[record]]
monomer_sequence = "QVQLVESGGGLVQAGGSLRLSCAASGSIFYSNVMGWYRQAPGKERELVARITDAGSTNYADSVKGRFTISRDNAKNTVYLQMNSLKPEDTAVYYCNARLVIYTYDYWGQGTQVTVSS"
experimental_endpoint = "polyreactivity (PSR sort gate)"
result = "low polyreactivity"


Now consider the entry below.
Please give the measured polyreactivity (PSR sort gate) for this sequence: QVQLVESGGGLVQAGGSLRLSCAASGRTFAYNTMGWYRQAPGKERELVARINSGTSTYYADSVKGRFTISRDNAKNTVYLEMNSLKPEDTAVYYCAARGSDYIRWYVGGRYGYWGQGSQVTVSS
low polyreactivity
